Origin of the recorded values: ChEMBL document CHEMBL1140860

# TEST DESCRIPTION: Selectivity index, ratio of TC50 for african green monkey (Cercopithecus aethiops) Vero cells to IC50 for chloroquine-resistant Plasmodium falciparum W2
# Format: toxicity, cell-based
Quick list: selectivity ratio per entry.

MOLECULE	RESULT
C[C@H]1[C@@H](OCCCO[C@H]2O[C@@H]3O[C@@]4(C)CC[C@H]5[C@H](C)CC[C@@H]([C@H]2C)[C@@]35OO4)O[C@@H]2O[C@@]3(C)CC[C@H]4[C@H](C)CC[C@@H]1[C@@]24OO3	35

molecule C[C@H]1[C@@H](OCC(O)CO[C@@H]2C[C@@H]3CC[C@@H](C)[C@@H]4CC[C@@]5(C)OO[C@@]34[C@H](O2)O5)O[C@@H]2O[C@@]3(C)CC[C@H]4[C@H](C)CC[C@@H]1[C@@]24OO3 (stereo not given in full) , selectivity ratio observed: > 6430

For reference, reported selectivity ratio for C[C@H]1[C@@H](OCC(=O)CO[C@H]2O[C@@H]3O[C@@]4(C)CC[C@H]5[C@H](C)CC[C@@H]([C@H]2C)[C@@]35OO4)O[C@@H]2O[C@@]3(C)CC[C@H]4[C@H](C)CC[C@@H]1[C@@]24OO3 stands at > 23800

Recorded result, C[C@H]1[C@@H](O[C@@H](C)CO[C@H]2O[C@@H]3O[C@@]4(C)CC[C@H]5[C@H](C)CC[C@@H]([C@H]2C)[C@@]35OO4)O[C@@H]2O[C@@]3(C)CC[C@H]4[C@H](C)CC[C@@H]1[C@@]24OO3 , selectivity ratio: > 15

Reported selectivity ratio of C=C1[C@@H](OCCCO[C@H]2O[C@@H]3O[C@@]4(C)CC[C@H]5[C@H](C)CC[C@@H](C2=C)[C@@]35OO4)O[C@@H]2O[C@@]3(C)CC[C@H]4[C@H](C)CC[C@@H]1[C@@]24OO3 : > 159

Notebook: C[C@H]1[C@H](O[C@H]2O[C@@H]3O[C@@]4(C)CC[C@H]5[C@H](C)CC[C@@H]([C@H]2C)[C@@]35OO4)O[C@@H]2O[C@@]3(C)CC[C@H]4[C@H](C)CC[C@@H]1[C@@]24OO3 , selectivity ratio read as > 34

# selectivity ratio (molecule: C[C@H]1[C@@H](O[C@H]2CC[C@H](O[C@H]3O[C@@H]4O[C@@]5(C)CC[C@H]6[C@H](C)CC[C@@H]([C@H]3C)[C@@]46OO5)CC2)O[C@@H]2O[C@@]3(C)CC[C@H]4[C@H](C)CC[C@@H]1[C@@]24OO3 ) is > 553

====

Reported GI50 values for the following molecules.
# Test system: HCT-15
# TEST DESCRIPTION: Growth inhibition of human HCT15 cells after 48 hrs by sulforhodamine B assay
# Format: functional
# SETUP CONDITIONS: HCT-15, 48 h
Write it as a number; the unit nM goes unstated.

Answered cases to consult:
MOLECULE	NUMBER
C[C@H]1[C@@H](O[C@H]2CC[C@@H](O[C@H]3O[C@@H]4O[C@@]5(C)CC[C@H]6[C@H](C)CC[C@@H]([C@H]3C)[C@@]46OO5)CC2)O[C@@H]2O[C@@]3(C)CC[C@H]4[C@H](C)CC[C@@H]1[C@@]24OO3	14
C[C@H]1[C@@H](OCCO[C@H]2O[C@@H]3O[C@@]4(C)CC[C@H]5[C@H](C)CC[C@@H]([C@H]2C)[C@@]35OO4)O[C@@H]2O[C@@]3(C)CC[C@H]4[C@H](C)CC[C@@H]1[C@@]24OO3	19
C[C@H]1[C@@H](OCCCO[C@H]2O[C@@H]3O[C@@]4(C)CC[C@H]5[C@H](C)CC[C@@H]([C@H]2C)[C@@]35OO4)O[C@@H]2O[C@@]3(C)CC[C@H]4[C@H](C)CC[C@@H]1[C@@]24OO3	403
C=C1[C@@H](OCCCO[C@H]2O[C@@H]3O[C@@]4(C)CC[C@H]5[C@H](C)CC[C@@H](C2=C)[C@@]35OO4)O[C@@H]2O[C@@]3(C)CC[C@H]4[C@H](C)CC[C@@H]1[C@@]24OO3	12
COCC(CO[C@H]1O[C@@H]2O[C@@]3(C)CC[C@H]4[C@H](C)CC[C@@H]([C@H]1C)[C@@]24OO3)O[C@H]1O[C@@H]2O[C@@]3(C)CC[C@H]4[C@H](C)CC[C@@H]([C@H]1C)[C@@]24OO3 (stereo partly drawn)	17

Consider now this further molecule.
Entry C[C@H]1[C@H](OCCCCO[C@H]2O[C@@H]3O[C@@]4(C)CC[C@H]5[C@H](C)CC[C@@H]([C@H]2C)[C@@]35OO4)O[C@@H]2O[C@@]3(C)CC[C@H]4[C@H](C)CC[C@@H]1[C@@]24OO3 , GI50 reported as 7

====

# Test system: K562
# TEST DESCRIPTION: Growth inhibition of human K562 cells after 48 hrs by sulforhodamine B assay
# Assay type: functional
# SETUP CONDITIONS: K562, 48 h
Below: a set of entries, each annotated with reported GI50.
Please give a number only; it is taken to be in nM.

Here are 5 molecules together with their reported answers.
MOLECULE	GI50 / nM
COCC(CO[C@H]1O[C@@H]2O[C@@]3(C)CC[C@H]4[C@H](C)CC[C@@H]([C@H]1C)[C@@]24OO3)O[C@H]1O[C@@H]2O[C@@]3(C)CC[C@H]4[C@H](C)CC[C@@H]([C@H]1C)[C@@]24OO3 (stereo partly drawn)	27
C[C@H]1[C@@H](OCC(CO[C@H]2O[C@@H]3O[C@@]4(C)CC[C@H]5[C@H](C)CC[C@@H]([C@H]2C)[C@@]35OO4)OC(=O)CCC(=O)O)O[C@@H]2O[C@@]3(C)CC[C@H]4[C@H](C)CC[C@@H]1[C@@]24OO3 (stereo partly drawn)	230
C[C@H]1[C@H](OCCCCO[C@H]2O[C@@H]3O[C@@]4(C)CC[C@H]5[C@H](C)CC[C@@H]([C@H]2C)[C@@]35OO4)O[C@@H]2O[C@@]3(C)CC[C@H]4[C@H](C)CC[C@@H]1[C@@]24OO3	12
C[C@H]1[C@@H](O[C@H]2CC[C@H](O[C@H]3O[C@@H]4O[C@@]5(C)CC[C@H]6[C@H](C)CC[C@@H]([C@H]3C)[C@@]46OO5)CC2)O[C@@H]2O[C@@]3(C)CC[C@H]4[C@H](C)CC[C@@H]1[C@@]24OO3	41
C[C@H]1[C@H](OCCO[C@H]2O[C@@H]3O[C@@]4(C)CC[C@H]5[C@H](C)CC[C@@H]([C@H]2C)[C@@]35OO4)O[C@@H]2O[C@@]3(C)CC[C@H]4[C@H](C)CC[C@@H]1[C@@]24OO3	20

Then this molecule:
Simply: C[C@H]1[C@@H](O[C@H]2CC[C@@H](O[C@H]3O[C@@H]4O[C@@]5(C)CC[C@H]6[C@H](C)CC[C@@H]([C@H]3C)[C@@]46OO5)CC2)O[C@@H]2O[C@@]3(C)CC[C@H]4[C@H](C)CC[C@@H]1[C@@]24OO3 , K562, GI50 = 14

====

In this section, each of the compounds is paired with its reported GI50.
# System: HCT-15
# TEST DESCRIPTION: Growth inhibition of human HCT15 cells after 48 hrs by sulforhodamine B assay
# Assay type: functional
# SETUP CONDITIONS: HCT-15, 48 h
# output: bare number, implied unit µM

COMPOUND	QUANTITY	NUMBER
C[C@H]1[C@H](OCCO[C@H]2O[C@@H]3O[C@@]4(C)CC[C@H]5[C@H](C)CC[C@@H]([C@H]2C)[C@@]35OO4)O[C@@H]2O[C@@]3(C)CC[C@H]4[C@H](C)CC[C@@H]1[C@@]24OO3	GI50	0.017

// field: GI50; key: C[C@H]1[C@@H](OCC(O)CO[C@@H]2C[C@@H]3CC[C@@H](C)[C@@H]4CC[C@@]5(C)OO[C@@]34[C@H](O2)O5)O[C@@H]2O[C@@]3(C)CC[C@H]4[C@H](C)CC[C@@H]1[C@@]24OO3 (some centres undefined) ; value = 0.027

====

# TEST DESCRIPTION: Selectivity index, ratio of TC50 for african green monkey (Cercopithecus aethiops) Vero cells to IC50 for chloroquine-sensitive Plasmodium falciparum D6
# Format: toxicity, cell-based
Here, each record is paired with measured selectivity ratio data.

Lab note: measured selectivity ratio of C[C@H]1[C@@H](O[C@H]2CC[C@@H](O[C@H]3O[C@@H]4O[C@@]5(C)CC[C@H]6[C@H](C)CC[C@@H]([C@H]3C)[C@@]46OO5)CC2)O[C@@H]2O[C@@]3(C)CC[C@H]4[C@H](C)CC[C@@H]1[C@@]24OO3 was > 1590

Query C[C@H]1[C@H](O[C@H]2O[C@@H]3O[C@@]4(C)CC[C@H]5[C@H](C)CC[C@@H]([C@H]2C)[C@@]35OO4)O[C@@H]2O[C@@]3(C)CC[C@H]4[C@H](C)CC[C@@H]1[C@@]24OO3 yields selectivity ratio of > 37

Looking up C[C@H]1[C@@H](OCCCO[C@H]2O[C@@H]3O[C@@]4(C)CC[C@H]5[C@H](C)CC[C@@H]([C@H]2C)[C@@]35OO4)O[C@@H]2O[C@@]3(C)CC[C@H]4[C@H](C)CC[C@@H]1[C@@]24OO3 , I found its selectivity ratio recorded as > 21

The measured selectivity ratio associated with C=C1[C@@H](OCCCO[C@H]2O[C@@H]3O[C@@]4(C)CC[C@H]5[C@H](C)CC[C@@H](C2=C)[C@@]35OO4)O[C@@H]2O[C@@]3(C)CC[C@H]4[C@H](C)CC[C@@H]1[C@@]24OO3 reads > 43
